assay: AUC in Han-Wistar rat at 3 mg/kg, po; format: ADME, organism-based; set-up: dose 3 mg/kg, route oral; settings: plasma
value-type: AUC (ng·h/mL)

Cc1ccc(-c2ccc3c(c2)N(c2nc4c(s2)C(=O)NC(C)(C)C4)CCO3)nn1 2470

a. Cc1ccc(-c2ccc3c(c2)N(c2nc4c(s2)C(=O)NC(C)(C)C4)CCO3)cn1
b. Cn1cc(-c2ccc3c(c2)N(c2nc4c(s2)C(=O)NC(C)(C)C4)CCO3)cn1
Smaller AUC value, a vs b ? When you have decided, please share the label of that item.
a
(a: 2880 ng·h/mL, b: 6160 ng·h/mL)
